The measurements presented in this section are drawn from patent US6664231B1.

# System: mouse RAW 264.7 cells
# CONDITION DETAILS: RAW 264.7 cell growth inhibited by 50%
Square brackets hold non-standard residues; d marks the D form. Peptide text beside a SMILES is read from it. Aoc = NCCCCCCCC(=O)O
MEASURED METRIC: IC50 (toxicity/growth inhibition of peptide)

| COMPOUND | TARGET DESC | REPORTED MEASUREMENT |
| --- | --- | --- |
| CC[C@@H](C)[C@@H](NC(=O)[C@@H](CC(C)C)NC(=O)[C@@H](Cc1c[nH]c2ccccc12)NC(=O)[C@@H](CCCCN)NC(=O)CCCCCCCN)C(=O)N[C@H](CCC(N)=O)C(=O)N[C@H](CC(C)C)C(=O)N[C@H](Cc1ccccc1)C(=O)N[C@H](Cc1c[nH]cn1)C(=O)N[C@H](CCCCN)C(=O)N[C@H](CCCCN)C(N)=O [XMP.416] (H-[Aoc][dK][dW][dL][dI][dQ][dL][dF][dH][dK][dK]-NH2) | mouse RAW 264.7 cells | 24.41 ± 0.78 µg/mL |
